# target-under-test: T1, human IL1RAP (human, UniProt Q9NPH3 21-367, limits assumed, biotinylated in the ELISA screens (site not stated))
# T1 construct: also called huIL1RAP; IL1RAP antigen
# T1 sequence (looked up): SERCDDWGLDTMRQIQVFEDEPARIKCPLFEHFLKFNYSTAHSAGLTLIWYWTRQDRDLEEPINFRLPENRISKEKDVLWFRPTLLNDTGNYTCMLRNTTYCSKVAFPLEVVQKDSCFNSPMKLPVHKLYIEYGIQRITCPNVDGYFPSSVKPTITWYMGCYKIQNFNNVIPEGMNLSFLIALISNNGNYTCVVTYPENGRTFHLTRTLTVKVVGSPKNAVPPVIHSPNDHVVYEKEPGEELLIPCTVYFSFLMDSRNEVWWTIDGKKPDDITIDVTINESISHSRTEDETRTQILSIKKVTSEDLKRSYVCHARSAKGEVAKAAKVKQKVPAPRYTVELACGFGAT
# assay-procedure: ELISA of point mutant IgG (light chain mutant with the parental chimeric heavy chain, CHO-E expression), one bar each, concentration not given
property-name: binding result

Inquiry: Fill blank: measured binding result of the binder VK-E56S (antibody, V domains shown, germlining point mutant, paired with the parental chimeric heavy chain; also called GO11 chimeric IgG, light chain point mutant E56S; copies: 2 + 2) VH: QVHLQQSGPELVRPGTSVKISCEASGYIFLTYWMNWVKQRPGQGLEWIGQIFPASDSTYYNEMFKDKARFTVDKSSSTAYMQFSSLTSEDTAVYFCARSGPYSYYAGGYALDYWGQGTSVTVSS VL: DIQMTQSPASLSASVGETVTITCRTSENINSYLAWYQQKQGKSPQLLVHYAKTLASGVPSRFSGSGSGTQFSLKINSLKPEDFGSYYCQHHYGTSLTFGAGTKLELKR is ____.
Reply text: binds
